# ASSAYED_SYSTEM: dTRPA1 (Canis lupus familiaris)
# Sequence (A0A8I3Q1Q7 1-1118): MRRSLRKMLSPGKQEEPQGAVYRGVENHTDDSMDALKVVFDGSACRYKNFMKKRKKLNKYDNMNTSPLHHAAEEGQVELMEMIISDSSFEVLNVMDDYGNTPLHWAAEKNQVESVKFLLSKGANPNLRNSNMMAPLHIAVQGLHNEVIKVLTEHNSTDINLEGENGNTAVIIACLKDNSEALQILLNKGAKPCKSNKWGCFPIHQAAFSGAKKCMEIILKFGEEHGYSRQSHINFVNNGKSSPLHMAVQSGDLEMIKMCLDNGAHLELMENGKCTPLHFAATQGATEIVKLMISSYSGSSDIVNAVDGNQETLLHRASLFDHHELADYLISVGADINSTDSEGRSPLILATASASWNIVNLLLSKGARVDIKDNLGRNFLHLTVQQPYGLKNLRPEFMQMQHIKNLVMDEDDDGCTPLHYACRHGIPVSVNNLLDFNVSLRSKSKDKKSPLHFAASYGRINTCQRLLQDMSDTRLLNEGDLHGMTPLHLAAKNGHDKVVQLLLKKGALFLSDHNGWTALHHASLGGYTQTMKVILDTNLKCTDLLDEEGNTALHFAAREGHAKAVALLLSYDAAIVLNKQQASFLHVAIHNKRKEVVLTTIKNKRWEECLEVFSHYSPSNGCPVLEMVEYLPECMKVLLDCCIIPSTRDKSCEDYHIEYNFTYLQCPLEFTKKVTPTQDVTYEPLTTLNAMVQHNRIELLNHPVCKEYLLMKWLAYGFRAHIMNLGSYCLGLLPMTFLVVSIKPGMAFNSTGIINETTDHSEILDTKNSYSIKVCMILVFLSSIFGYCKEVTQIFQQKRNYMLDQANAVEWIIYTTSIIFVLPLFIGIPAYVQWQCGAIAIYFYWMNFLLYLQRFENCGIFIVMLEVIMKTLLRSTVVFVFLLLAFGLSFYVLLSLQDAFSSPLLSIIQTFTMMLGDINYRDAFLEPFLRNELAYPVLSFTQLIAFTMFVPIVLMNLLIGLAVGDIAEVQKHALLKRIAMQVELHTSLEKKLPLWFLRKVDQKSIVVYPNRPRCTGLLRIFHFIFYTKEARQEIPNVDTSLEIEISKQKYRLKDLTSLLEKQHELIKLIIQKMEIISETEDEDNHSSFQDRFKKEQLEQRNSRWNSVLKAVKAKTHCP
# EXPERIMENTAL_PROTOCOL: Whole-cell patch clamp block of inward current through dTRPA1
# Type: cell-based, Dog
# TEST_SETTINGS: dTRPA1, Dog; current activation 10 micromolar AITC; read-out: IC50 Inward current
PROPERTY_NAME: pIC50
Just so you know, pIC50 here is -log10 of the concentration in molar units; reply with that number alone.

Ask: Output measured pIC50 for this item: C[C@H]1CCCN1c1ncc(-c2cccc(NC(=O)Cn3cnc4c3c(=O)n(C)c(=O)n4C)n2)cn1
Reply: 6.99

----------
# EXPERIMENTAL_PROTOCOL: Oral bioavailability pharmacokinetic study
# Assay type: in vivo
# TEST_SETTINGS: rat, plasma, po, fasted rats; PO versus IV; read-out: Bioavailability (Rat) Fasted
PROPERTY_NAME: bioavailability

>>> endpoint_value("C[C@H]1CCCN1c1ncc(-c2cccc(NC(=O)Cn3cnc4c3c(=O)n(C)c(=O)n4C)n2)cn1 [Formula (Ia)]")
"25 to 50%"

// next entry
Ask: Output measured bioavailability for this item: C[C@H]1CCCN1c1ccc(-c2csc(NC(=O)Cn3cnc4c3c(=O)n(C)c(=O)n4C)n2)cc1F [Formula (III), reference compound]
Reply: 25 to 50%

Reference source: patent US20140158116A1
